Reference source for all entries: patent US9493464B2

- Assay target: CK1δ (Homo sapiens, UniProt P48730)
- Sequence (P48730 whole entry): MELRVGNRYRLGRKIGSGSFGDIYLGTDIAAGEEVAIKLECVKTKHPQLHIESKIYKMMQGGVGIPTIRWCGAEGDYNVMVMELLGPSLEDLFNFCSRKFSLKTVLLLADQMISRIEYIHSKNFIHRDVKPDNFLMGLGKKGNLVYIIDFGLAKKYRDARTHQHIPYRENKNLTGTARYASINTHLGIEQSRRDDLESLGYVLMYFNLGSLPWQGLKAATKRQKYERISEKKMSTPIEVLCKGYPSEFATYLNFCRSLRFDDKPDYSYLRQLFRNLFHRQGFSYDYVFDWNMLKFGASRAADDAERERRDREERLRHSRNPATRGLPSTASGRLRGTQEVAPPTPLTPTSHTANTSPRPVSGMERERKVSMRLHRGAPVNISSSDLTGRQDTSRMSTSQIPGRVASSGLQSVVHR
- Protocol description: In vitro kinase assay, CK1d, 32P-ATP filter binding (Reaction Biology Corporation)
- Type: biochemical
- Condition notes: 10 μM ATP; read-out: CK1δ IC50
Measurement label: IC50 (nM)

>>> df
                                   compound                         assay_target  reading_unit  measured_number
0  O=[N+]([O-])c1cccc2[nH]c(CNc3nc(N4CCOCC4)nc4c3ncn4-c3ccsc3)nc12  CK1δ (Homo sapiens, UniProt P48730)            nM               49
